# Test system: male codling moths
# procedureDetails: Wind tunnel test, behavioral responses of male codling moths
# Type: in vivo, Cydia pomonella (codling moth)
# assaySetup: Example 6, mean percentage, 100000 μg alone
measurementLabel: Oriented Flight of Males (%)
Express the result in % but write the number alone.

The following compounds have reported results that may help.
CCCCCOC(C)=O [amyl acetate] | 5
CCCCCCCCCCCCO | 0
CC(C)=CCC/C(C)=C/CC/C(C)=C/CO | 0
COC(=O)c1ccccc1O [methyl salicylate] | 0
CCCCC/C=C\C=C\C(=O)OCC [pear ester, ethyl (2E,4Z)-decadienoate] | 0

Shifting focus to the compound that follows.
Identify the measured Oriented Flight of Males of CCOC(=O)CC(C)C [ethyl isovalerate, ethyl 3-methylbutanoate] for male codling moths.
10
